Entry source: patent US5073563A

# assayed_target: MAO B (Rattus norvegicus)
# Construct: determined in dilute rat brain homogenate; from tissue; host or cells: rat brain homogenate
# Sequence (P19643 1-520): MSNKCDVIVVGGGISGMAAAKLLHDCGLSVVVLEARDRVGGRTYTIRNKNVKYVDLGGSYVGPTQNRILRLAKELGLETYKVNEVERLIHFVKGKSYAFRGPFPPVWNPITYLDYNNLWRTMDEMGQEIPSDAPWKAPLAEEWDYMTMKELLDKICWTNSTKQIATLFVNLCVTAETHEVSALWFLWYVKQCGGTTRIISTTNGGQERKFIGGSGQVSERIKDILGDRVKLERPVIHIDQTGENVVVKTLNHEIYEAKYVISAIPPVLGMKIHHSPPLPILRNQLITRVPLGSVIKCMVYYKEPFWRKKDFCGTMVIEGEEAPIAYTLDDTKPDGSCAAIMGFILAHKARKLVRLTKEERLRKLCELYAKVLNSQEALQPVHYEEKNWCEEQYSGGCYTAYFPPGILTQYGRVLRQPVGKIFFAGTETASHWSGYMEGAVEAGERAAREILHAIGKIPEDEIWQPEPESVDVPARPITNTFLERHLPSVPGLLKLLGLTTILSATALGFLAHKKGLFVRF
# experimental_protocol: MAO B inhibition in dilute rat brain homogenate (14C substrate, 20 min at 37° C)
# Type: biochemical
# assay_conditions: quotient of IC50 MAO A and IC50 MAO B (selectivity for MAO B); 20 min
measured_attribute: IC50 ratio MAO A / MAO B

Previously resolved entries follow.
Reported IC50 ratio MAO A / MAO B, compound CCc1cc2c(C)c(C)c(=O)oc2cc1OCc1nnc(C)s1 [Example 85] : ____
> 1700

Reported IC50 ratio MAO A / MAO B, compound Cc1c(C)c2ccc(OCc3csc(C(C)C)n3)cc2oc1=O [Example 75] : ____
~ 7000

Reported IC50 ratio MAO A / MAO B, compound Cc1c(Cl)c(=O)oc2cc(OCc3cc(C(C)C)n(C)n3)ccc12 [Example 54] : ____
> 6700

Further cases:
Reported IC50 ratio MAO A / MAO B, compound Cc1c(C)c2ccc(OCc3cc(C4(C)CC4)no3)cc2oc1=O [Example 96] : ____
~ 32000

Reported IC50 ratio MAO A / MAO B, compound Cc1cc(COc2ccc3c(C)c(C)c(=O)oc3c2)on1 [Example 3] : ____
710

Reported IC50 ratio MAO A / MAO B, compound Cc1nnc(COc2cc3oc(=O)c(C)c(C)c3cc2Br)s1 [Example 67] : ____
> 9100

Reported IC50 ratio MAO A / MAO B, compound CC(C)c1cc(COc2ccc3c4c(c(=O)oc3c2)CCCC4)nn1C [Example 55] : ____
> 1000

Reported IC50 ratio MAO A / MAO B, compound Cc1nc(COc2ccc3c(C)c(C)c(=O)oc3c2)cs1 [Example 24] : ____
~ 3300

Reported IC50 ratio MAO A / MAO B, compound CCCc1cc(COc2ccc3c(C)c(C)c(=O)oc3c2)on1 [Example 4] : ____
~ 5900

Reported IC50 ratio MAO A / MAO B, compound Cc1c(C)c2ccc(OCc3cc(C4CCCCC4)no3)cc2oc1=O [Example 99] : ____
> 1200
